# test system: Cyclin C/CDK8 (Homo sapiens, UniProt P49336)
# Sequence (P49336 whole entry, species assumed): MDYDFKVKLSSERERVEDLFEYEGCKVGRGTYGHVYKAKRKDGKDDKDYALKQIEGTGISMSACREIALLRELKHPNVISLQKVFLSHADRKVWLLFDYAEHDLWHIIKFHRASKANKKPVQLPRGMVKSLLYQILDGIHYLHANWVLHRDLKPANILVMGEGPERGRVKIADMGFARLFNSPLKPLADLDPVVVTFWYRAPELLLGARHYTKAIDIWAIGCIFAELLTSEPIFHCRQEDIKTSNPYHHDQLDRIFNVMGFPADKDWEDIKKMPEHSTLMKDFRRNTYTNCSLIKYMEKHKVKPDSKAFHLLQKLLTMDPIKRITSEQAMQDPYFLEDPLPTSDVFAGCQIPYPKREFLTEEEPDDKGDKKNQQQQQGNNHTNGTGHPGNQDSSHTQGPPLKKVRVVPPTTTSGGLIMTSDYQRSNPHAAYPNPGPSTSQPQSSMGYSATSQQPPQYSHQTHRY
# Sequence (P24863 whole entry partner, species assumed): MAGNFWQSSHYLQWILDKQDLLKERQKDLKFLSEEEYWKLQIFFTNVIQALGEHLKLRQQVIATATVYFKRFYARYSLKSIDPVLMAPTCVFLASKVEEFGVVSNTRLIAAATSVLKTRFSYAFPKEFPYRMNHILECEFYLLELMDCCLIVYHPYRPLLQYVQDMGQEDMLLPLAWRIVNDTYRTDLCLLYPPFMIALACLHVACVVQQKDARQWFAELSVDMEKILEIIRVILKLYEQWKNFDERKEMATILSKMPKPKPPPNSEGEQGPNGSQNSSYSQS
# method: Binding to Cyclin C/CDK8 complex
# Excerpt: Given that the pyridine core of BRD6989 is a common kinase-binding motif (Xing et al., J Comput Aided Mol Des 28:13-23, 2014), its activity against 414 kinases was profiled using a series of binding and activity assays. […] Binding of BRD6989 to CDK8, and its paralog CDK19, was confirmed using an orthogonal kinase-profiling format.
assay endpoint: IC50

[
  {
    "molecule": "CC1CCc2nc(N)c(C#N)c(-c3cccnc3)c2C1 (stereo not shown) [BRD6989]",
    "observed value": "~200 nM"
  }
]
